biological target: Epidermal growth factor receptor (Homo sapiens)
Sequence (P00533 whole entry): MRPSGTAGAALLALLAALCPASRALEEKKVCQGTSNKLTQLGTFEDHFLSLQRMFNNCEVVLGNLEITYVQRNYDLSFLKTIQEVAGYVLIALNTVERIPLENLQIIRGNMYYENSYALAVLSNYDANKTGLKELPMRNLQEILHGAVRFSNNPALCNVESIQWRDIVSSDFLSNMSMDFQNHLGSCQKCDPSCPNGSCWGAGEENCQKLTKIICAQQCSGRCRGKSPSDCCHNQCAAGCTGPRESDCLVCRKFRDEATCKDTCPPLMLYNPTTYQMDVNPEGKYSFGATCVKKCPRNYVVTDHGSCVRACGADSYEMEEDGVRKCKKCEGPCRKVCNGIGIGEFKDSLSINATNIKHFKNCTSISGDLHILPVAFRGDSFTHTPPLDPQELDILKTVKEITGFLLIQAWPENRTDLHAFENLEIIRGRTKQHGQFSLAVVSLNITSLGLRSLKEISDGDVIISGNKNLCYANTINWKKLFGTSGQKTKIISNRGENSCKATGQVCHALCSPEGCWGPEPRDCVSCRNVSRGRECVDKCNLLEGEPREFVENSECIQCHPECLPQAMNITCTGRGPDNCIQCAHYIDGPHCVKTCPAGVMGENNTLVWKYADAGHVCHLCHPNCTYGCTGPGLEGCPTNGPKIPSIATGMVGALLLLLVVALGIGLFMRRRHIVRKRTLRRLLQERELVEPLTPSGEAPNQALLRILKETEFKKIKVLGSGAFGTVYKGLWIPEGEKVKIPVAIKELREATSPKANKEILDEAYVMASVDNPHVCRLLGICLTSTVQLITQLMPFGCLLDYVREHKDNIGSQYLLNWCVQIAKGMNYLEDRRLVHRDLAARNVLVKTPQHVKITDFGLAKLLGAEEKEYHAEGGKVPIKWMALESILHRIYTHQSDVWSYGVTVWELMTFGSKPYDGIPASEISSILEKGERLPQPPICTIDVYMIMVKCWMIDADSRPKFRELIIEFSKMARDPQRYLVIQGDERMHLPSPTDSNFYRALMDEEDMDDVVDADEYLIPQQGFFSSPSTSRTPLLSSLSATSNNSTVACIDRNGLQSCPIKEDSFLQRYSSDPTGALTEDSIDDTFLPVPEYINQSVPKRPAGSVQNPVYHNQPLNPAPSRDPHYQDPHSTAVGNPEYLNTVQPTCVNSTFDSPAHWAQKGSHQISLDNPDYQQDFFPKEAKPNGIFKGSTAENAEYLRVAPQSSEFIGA
Property measured: Kd (nM)
Dear colleague, please return just the value in nM, with no unit written.

Short answer on Epidermal growth factor receptor (Homo sapiens) for `c1csc(CNc2ncnc3ccc(-c4ccc5c(c4)OCO5)cc23)c1` , Kd: 230

###

target: Dual specificity protein kinase CLK4 (Homo sapiens)
Property measured: Kd (nM)
Dear colleague, please return just the value in nM, with no unit written.

Short answer on Dual specificity protein kinase CLK4 (Homo sapiens) for `c1csc(CNc2ncnc3ccc(-c4ccc5c(c4)OCO5)cc23)c1` , Kd: 50

###

molecular target: Dual specificity protein kinase CLK3 (Homo sapiens, UniProt P49761)
Sequence (P49761 whole entry): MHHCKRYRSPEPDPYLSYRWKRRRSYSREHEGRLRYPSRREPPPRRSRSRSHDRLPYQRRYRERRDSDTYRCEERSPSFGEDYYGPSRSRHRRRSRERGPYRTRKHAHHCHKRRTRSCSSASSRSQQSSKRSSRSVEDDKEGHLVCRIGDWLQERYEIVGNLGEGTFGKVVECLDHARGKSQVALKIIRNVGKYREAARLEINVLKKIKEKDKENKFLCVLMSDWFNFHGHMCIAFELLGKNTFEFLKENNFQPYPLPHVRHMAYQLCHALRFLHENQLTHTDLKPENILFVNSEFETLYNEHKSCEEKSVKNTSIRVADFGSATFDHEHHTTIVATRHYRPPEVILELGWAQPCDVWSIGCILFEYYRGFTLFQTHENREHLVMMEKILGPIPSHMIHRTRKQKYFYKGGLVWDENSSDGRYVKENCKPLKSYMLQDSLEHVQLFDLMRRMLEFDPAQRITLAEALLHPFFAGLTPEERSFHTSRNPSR
Property measured: Kd (µM)
Dear colleague, please return just the value in µM, with no unit written.

Form field Kd, entry `c1csc(CNc2ncnc3ccc(-c4ccc5c(c4)OCO5)cc23)c1` : 0.47

###

molecular target: Dual specificity protein kinase CLK2 (Homo sapiens)
Sequence (P49760 whole entry): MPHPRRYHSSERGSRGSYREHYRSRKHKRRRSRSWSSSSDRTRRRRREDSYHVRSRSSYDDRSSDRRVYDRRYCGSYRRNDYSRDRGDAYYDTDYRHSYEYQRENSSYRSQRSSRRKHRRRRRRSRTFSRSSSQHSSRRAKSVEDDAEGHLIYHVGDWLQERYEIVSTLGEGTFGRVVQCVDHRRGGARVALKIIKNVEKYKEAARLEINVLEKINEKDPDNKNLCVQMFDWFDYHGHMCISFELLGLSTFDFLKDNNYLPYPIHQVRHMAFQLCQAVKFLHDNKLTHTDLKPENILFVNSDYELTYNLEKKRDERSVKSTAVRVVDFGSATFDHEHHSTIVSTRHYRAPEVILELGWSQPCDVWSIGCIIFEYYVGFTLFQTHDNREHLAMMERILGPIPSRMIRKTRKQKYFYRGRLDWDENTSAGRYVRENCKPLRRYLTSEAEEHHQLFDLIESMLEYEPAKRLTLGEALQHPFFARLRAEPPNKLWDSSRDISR
Property measured: pKd
By convention, pKd is the negative base-10 log of a molar concentration.

Form field pKd, entry `c1csc(CNc2ncnc3ccc(-c4ccc5c(c4)OCO5)cc23)c1` : 6.17

###

target: Dual specificity tyrosine-phosphorylation-regulated kinase 1A (Homo sapiens)
Property measured: pKd
By convention, pKd is the negative base-10 log of a molar concentration.

Short answer on Dual specificity tyrosine-phosphorylation-regulated kinase 1A (Homo sapiens) for `c1csc(CNc2ncnc3ccc(-c4ccc5c(c4)OCO5)cc23)c1` , pKd: 7.57

###

target: Dual specificity tyrosine-phosphorylation-regulated kinase 1B (Homo sapiens)
Sequence (Q9Y463 whole entry): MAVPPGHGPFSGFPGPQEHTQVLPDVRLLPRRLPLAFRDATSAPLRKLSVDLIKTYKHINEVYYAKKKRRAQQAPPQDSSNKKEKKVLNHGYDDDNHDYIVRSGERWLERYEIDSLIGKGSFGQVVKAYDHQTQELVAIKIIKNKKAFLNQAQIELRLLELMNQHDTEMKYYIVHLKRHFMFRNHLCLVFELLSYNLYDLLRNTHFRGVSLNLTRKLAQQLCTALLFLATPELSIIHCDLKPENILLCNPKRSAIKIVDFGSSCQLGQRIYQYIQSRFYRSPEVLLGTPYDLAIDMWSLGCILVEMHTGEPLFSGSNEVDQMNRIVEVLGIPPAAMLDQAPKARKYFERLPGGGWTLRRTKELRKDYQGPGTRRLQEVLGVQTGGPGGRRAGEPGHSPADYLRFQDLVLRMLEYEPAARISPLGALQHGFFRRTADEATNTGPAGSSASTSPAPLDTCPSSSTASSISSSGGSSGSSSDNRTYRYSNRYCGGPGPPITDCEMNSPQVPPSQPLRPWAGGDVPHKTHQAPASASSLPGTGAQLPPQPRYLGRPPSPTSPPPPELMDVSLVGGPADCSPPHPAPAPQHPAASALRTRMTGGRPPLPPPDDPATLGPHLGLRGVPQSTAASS
Property measured: Kd (nM)
Dear colleague, please return just the value in nM, with no unit written.

Form field Kd, entry `c1csc(CNc2ncnc3ccc(-c4ccc5c(c4)OCO5)cc23)c1` : 430

###

Measured IC50 (Dual specificity protein kinase CLK4 (Homo sapiens))
Dear colleague, please return just the value in nM, with no unit written.

Some compounds with known IC50 results, for comparison:
| Given smiles | Numeric result |
| --- | --- |
| COc1cccc(-c2ccc3ncnc(NCc4cccc(F)c4)c3c2)c1 | 708 |
| Cc1cccc(CNc2ncnc3ccc(-c4ccc5c(c4)OCCO5)cc23)c1 | 631 |
| c1nc(NCc2ccoc2)c2cc(-c3ccc4c(c3)OCO4)ccc2n1 | 63 |
| COc1cccc(-c2ccc3ncnc(NCc4cccs4)c3c2)c1 | 891 |
| Cc1csc(CNc2ncnc3ccc(-c4ccc5c(c4)OCCO5)cc23)c1 | 501 |

Short answer on Dual specificity protein kinase CLK4 (Homo sapiens) for `c1coc(-c2ccc3ncnc(NCc4ccoc4)c3c2)c1` , IC50: 111

Short answer on Dual specificity protein kinase CLK4 (Homo sapiens) for `c1csc(CNc2ncnc3ccc(-c4ccc5c(c4)OCO5)cc23)c1` , IC50: 63

Short answer on Dual specificity protein kinase CLK4 (Homo sapiens) for `Cc1noc(C)c1-c1ccc2ncnc(NCc3cccc(F)c3)c2c1` , IC50: 178

Short answer on Dual specificity protein kinase CLK4 (Homo sapiens) for `COc1cccc(-c2ccc3ncnc(NCc4cccnc4)c3c2)c1` , IC50: 3550

###

molecular target: Dual specificity protein kinase CLK4 (Homo sapiens, UniProt Q9HAZ1); assay: Inhibition of Clk4
Sequence (Q9HAZ1 whole entry): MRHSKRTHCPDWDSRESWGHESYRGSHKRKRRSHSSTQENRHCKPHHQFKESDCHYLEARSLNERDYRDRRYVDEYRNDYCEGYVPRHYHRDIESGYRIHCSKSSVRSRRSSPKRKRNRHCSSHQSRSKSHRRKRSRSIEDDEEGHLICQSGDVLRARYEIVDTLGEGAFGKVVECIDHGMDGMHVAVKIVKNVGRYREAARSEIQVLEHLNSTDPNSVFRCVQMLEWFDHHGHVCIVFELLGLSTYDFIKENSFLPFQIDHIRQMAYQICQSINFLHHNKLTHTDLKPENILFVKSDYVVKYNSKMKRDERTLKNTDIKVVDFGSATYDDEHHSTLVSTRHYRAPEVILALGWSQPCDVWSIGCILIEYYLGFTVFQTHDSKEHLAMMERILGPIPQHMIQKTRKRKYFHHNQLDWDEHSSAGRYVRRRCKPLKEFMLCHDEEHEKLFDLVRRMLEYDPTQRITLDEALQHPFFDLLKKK
IC50 by entry:
Dear colleague, please return just the value in nM, with no unit written.

| Given smiles | IC50 [nM] |
| --- | --- |
| COc1cccc(-c2ccc3ncnc(NCc4cc(C)cs4)c3c2)c1 | 1000 |
| Cc1csc(CNc2ncnc3ccc(-c4ccc5c(c4)OCO5)cc23)c1 | 178 |

Shift focus to the following entry.
Form field IC50, entry `COc1cccc(-c2ccc3ncnc(NCc4ccoc4)c3c2)c1` : 1000

Data provenance: ChEMBL document CHEMBL1156118
